test system: U-698-M; test: Bliss excess, mean over the matrix (fraction); higher = more synergy; conditions: first compound max 10 µM; partner max 1 µM; U-[…]; B-Cell Non-Hodgkin's Lymphoma; 7x7;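 further: after 72 h of two-drug dosing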
ENDPOINT: Bliss excess
Number only, please.

{"COMPOUND": "O=C(c1cc(Cc2n[nH]c(=O)c3ccccc23)ccc1F)N1CCN(C(=O)C2CC2)CC1 [Olaparib] + CC1(C)CCC(CN2CCN(c3ccc(C(=O)NS(=O)(=O)c4ccc(NCC5CCOCC5)c([N+](=O)[O-])c4)c(Oc4cnc5[nH]ccc5c4)c3)CC2)=C(c2ccc(Cl)cc2)C1 [Venetoclax]", "RECORDED_RESULT": -0.0064}
{"COMPOUND": "Cc1cc2ncnn2cc1Nc1ncc2c(n1)n(C1CCOCC1)c(=O)n2C [AZD7648] + CCN(CCO)CCCOc1ccc2c(Nc3cc(CC(=O)Nc4cccc(F)c4)[nH]n3)ncnc2c1 [AZD2811]", "RECORDED_RESULT": 0.0631}
{"COMPOUND": "CC(=O)c1c(C)c2cnc(Nc3ccc(N4CCNCC4)cn3)nc2n(C2CCCC2)c1=O [Palbociclib] + CC1(C)CCC(CN2CCN(c3ccc(C(=O)NS(=O)(=O)c4ccc(NCC5CCOCC5)c([N+](=O)[O-])c4)c(Oc4cnc5[nH]ccc5c4)c3)CC2)=C(c2ccc(Cl)cc2)C1 [Venetoclax]", "RECORDED_RESULT": -0.0676}

Pending compound:
Bliss excess measured on CC(=O)c1c(C)c2cnc(Nc3ccc(N4CCNCC4)cn3)nc2n(C2CCCC2)c1=O [Palbociclib] + Cc1c2c(nn1C)CSCc1cc(n(C)n1)CSc1cc(c3ccccc3c1)OCCCc1c(C(=O)O)n(C)c3c-2c(Cl)ccc13 [AZD5991] = -0.0228

----------
Each entry below lists one item and its recorded combination Emax value.
tested on: NCI-H64 (Small Cell Lung Carcinoma); test: combination Emax (second highest fraction inhibited in the dose matrix, 72 h); higher = more inhibition; extreme values may be limits of the assay
Number only, please.

combination Emax measured on COc1cccc(OCCCN)c1-c1cc(Nc2cnc(C#N)cn2)n[nH]1 [Prexasertib] + CCc1c2c(nc3ccc(O)cc13)-c1cc3c(c(=O)n1C2)COC(=O)[C@]3(O)CC [SN-38] (first compound max 1 µM, 7x7, partner max 0.3 µM) = 0.95

combination Emax measured on CN(CCO)CC[C@H](CSc1ccccc1)Nc1ccc(S(=O)(=O)NC(=O)c2ccc(N3CCC([C@@H](O)c4ccccc4-c4ccc(Cl)cc4)CC3)cc2)cc1S(=O)(=O)C(F)(F)F [AZD4320] + C[C@@H](Nc1cc(F)cc(F)c1)c1cc(C(=O)N(C)C)cc2c(=O)cc(N3CCOCC3)oc12 [AZD8186] (first compound max 1 µM, 7x7, partner max 3 µM) = 0.967

combination Emax measured on Cc1cc2ncnn2cc1Nc1ncc2c(n1)n(C1CCOCC1)c(=O)n2C [AZD7648] + C[C@@H]1COCCN1C2=NC(=NC(=C2)C3(CC3)[S@](=N)(=O)C)C4=C5C=CNC5=NC=C4 [AZD6738] (first compound max 10 µM, 7x7, partner max 10 µM) = 0.811

----------
test system: FU97 (Gastric Carcinoma); assay: combination Emax (second highest fraction inhibited in the dose matrix, 72 h); higher = more inhibition; extreme values may be limits of the assay
ENDPOINT: combination Emax
Number only, please.

For orientation, consider the following solved cases.
{"COMPOUND": "Cc1cc2ncnn2cc1Nc1ncc2c(n1)n(C1CCOCC1)c(=O)n2C [AZD7648] + O=C(c1cc(Cc2n[nH]c(=O)c3ccccc23)ccc1F)N1CCN(C(=O)C2CC2)CC1 [Olaparib] (first compound max 10 µM, 7x7, partner max 10 µM)", "TARGET_SYSTEM": "FU97 (Gastric Carcinoma)", "combination Emax": 0.291}
{"COMPOUND": "Cc1c2c(nn1C)CSCc1cc(n(C)n1)CSc1cc(c3ccccc3c1)OCCCc1c(C(=O)O)n(C)c3c-2c(Cl)ccc13 [AZD5991] + Nc1ccn([C@@H]2O[C@H](CO)[C@@H](O)C2(F)F)c(=O)n1 [Gemcitabine] (first compound max 1 µM, 7x7, partner max 0.3 µM)", "TARGET_SYSTEM": "FU97 (Gastric Carcinoma)", "combination Emax": 0.232}
{"COMPOUND": "CC1(C)CCC(CN2CCN(c3ccc(C(=O)NS(=O)(=O)c4ccc(NCC5CCOCC5)c([N+](=O)[O-])c4)c(Oc4cnc5[nH]ccc5c4)c3)CC2)=C(c2ccc(Cl)cc2)C1 [Venetoclax] + C[C@@H](Nc1cc(F)cc(F)c1)c1cc(C(=O)N(C)C)cc2c(=O)cc(N3CCOCC3)oc12 [AZD8186] (first compound max 1 µM, 7x7, partner max 3 µM)", "TARGET_SYSTEM": "FU97 (Gastric Carcinoma)", "combination Emax": 0.329}
{"COMPOUND": "COc1nnc2ccc(N3CCC(c4ccc(OCCN5CCN(C)C(=O)[C@H]5C)cc4)CC3)nn12 [AZD5153] + CCN(CCO)CCCOc1ccc2c(Nc3cc(CC(=O)Nc4cccc(F)c4)[nH]n3)ncnc2c1 [AZD2811] (first compound max 1 µM, 7x7, partner max 1 µM)", "TARGET_SYSTEM": "FU97 (Gastric Carcinoma)", "combination Emax": 0.766}

Pending compound:
combination Emax measured on Cc1c2c(nn1C)CSCc1cc(n(C)n1)CSc1cc(c3ccccc3c1)OCCCc1c(C(=O)O)n(C)c3c-2c(Cl)ccc13 [AZD5991] + CS(=O)(=O)CCNCc1ccc(-c2ccc3ncnc(Nc4ccc(OCc5cccc(F)c5)c(Cl)c4)c3c2)o1 [Lapatinib] (first compound max 1 µM, 7x7, partner max 10 µM) = 0.906
